melting point by entry:

In [3]: df
Out[3]:
                                   compound  reported_metric     meas_value
0     CCC1(CC)c2ccc(C)cc2C(CC)(CC)N1OC(C)=O    melting point    76 to 78 °C
1   Nc1ncc(Oc2ccc(Cl)cc2)c(N2CCN(C=O)CC2)n1    melting point  159 to 161 °C
2  COC(=O)C1=NC2=COc3ccc(C)cc3N2C1C(=O)O (stereo unspecified)    melting point  178 to 179 °C
3             N#Cc1ccc(C=Cc2ccc(C#N)cc2)cc1    melting point         288 °C
4  CN1C(=O)C(C2=COc3ccccc3O2)=C(c2c[nH]c3ccc(F)cc23)C1=O    melting point         229 °C

Fill in melting point for record `N#Cc1ccc(NC(=O)c2cccc(OCc3cc(F)cc(F)c3)c2)cc1`
185 to 187 °C

Read off the recorded melting point for `COC(=O)c1ncc(Cl)nc1NCc1ccc(OC)c(Cl)c1`
149 to 151 °C

Return the recorded melting point value; entry: `CNc1nnc(-c2cc3c(Oc4ccc(Cl)cc4)cncc3s2)s1`
226 to 229 °C

# return recorded melting point for entry CC(O)COC(c1c(C(C)C)nn2ccccc12)C(C)C (stereo unspecified)
112 °C

Please give the documented melting point of `COC(=O)c1ccc(NC(=O)C=C(C)c2cc(C(C)C)c(C(C)C)o2)cc1`
167 to 169 °C

---

reported_metric: melting point

Consider the following illustrative entries.
>>> print(df.to_string())
                                   compound  meas_value
0               Cc1ccccc1NC(=O)Nc1ccc(N)cc1    > 300 °C
1              Oc1nc(S)nc2c(-c3ccccc3)cnn12      251 °C
2  CCc1nnc(-c2ccc(N(C)C)cc2)n1-c1ccc(OC)cc1      148 °C

Please indicate melting point recorded for `CCOC(=O)CCCCCN(NS(=O)(=O)c1ccc(Cl)cc1)C(=O)Nc1cc(OC)cc(C(C)(C)C)c1O`
69 to 70 °C

Return melting point for the following compound: Nc1nc(=O)c2ncn(C3OC4COP(=O)(O)OC4C3O)c2[nH]1 (stereo not given)
91.6 to 93.7 °C

Tell me measured melting point for `COC(=O)c1ccc2nc(-c3ccc(C(C)(C)C)cc3)[nH]c2c1` please.
152 °C

Return the recorded melting point value; entry: `CC(=O)SCC(=O)NC(=O)Cc1ccccc1`
153 to 155 °C

For the compound `O=C(CBr)Nc1ccc(Cl)cc1C(=O)c1ccc(O)cc1` , give its measured melting point value.
201 to 203 °C

---

The following compounds are listed with their measured melting point values.

Use these answered entries as a reference point.
>>> df
                                   compound  reported_metric     meas_value
0  CCOc1ccc(-c2nc(C(O)c3ccc(OC)c(OC)c3)cs2)cc1OCC (stereo not given)    melting point  122 to 123 °C
1  COC(=O)N1CCC[C@@H](OC)[C@@H]1CC(=O)Cn1cnc2c(Cl)c(Cl)sc2c1=O (relative stereo)    melting point    58 to 62 °C
2  CC(O)(CCN1C(=O)c2ccccc2C1=O)c1ccc(-c2ccc(Cl)cc2)cc1 (stereo not given)    melting point  177 to 179 °C
3            O=C(c1ccccc1)c1ccc(O)c2ncccc12    melting point  115 to 116 °C
4  Cc1cccc(C)c1CNc1cc(Br)cc2c1nc(C)n2COCc1ccccc1    melting point  147 to 148 °C

Respond only with melting point recorded for `CCOc1nc(=O)n(C(=O)NCCCl)s1`
82 °C

Assign melting point to the following record: `CCn1nc(-c2ccccc2)c(C(C)=O)c(Nc2cccc3nc(C)ccc23)c1=O`
204 to 205 °C

Given the compound `CC1(C)COC(CCc2ccc(N)cc2)OC1` , write its reported melting point.
93.5 to 94.5 °C

Tell me measured melting point for `Fc1cc(CC2(Cc3ccnc(F)c3)c3cccnc3-c3cccnc32)ccn1` please.
134 to 135 °C

Identify the reported melting point for the following entry. `O=C(OCc1ccccc1)c1ccc(OC(=O)c2cccc(C(=O)Oc3ccc(C(=O)OCc4ccccc4)cc3)c2)cc1`
105 to 107 °C

Supply measured melting point of `O=C(O)c1ccc(C2=NCCO2)nc1` in your reply.
286 to 287 °C

Indicate the recorded melting point value for this compound: `CC(C)(C)c1cc(CC=Cc2ccccc2)cc(C(C)(C)C)c1O`
93 °C

Let me know recorded melting point for `Clc1ccc(Cl)n2nc(SCc3ccccc3)nc12` , thanks.
103 to 104 °C

Answer with reported melting point of `CCC(=O)Oc1ccc(N=c2scc(-c3ccc(Cl)c(S(=O)(=O)N(C)C)c3)n2C)cc1`
155 to 159 °C

# return recorded melting point for entry `Cc1cc(OC(=O)c2ccc(Cl)c(OCCn3cnnn3)c2Cl)n(C)n1`
138 to 140 °C

Look up and state reported melting point for CCOC(Cc1ccc(OCCN2CCSc3ccccc32)cc1)C(=O)NCc1ccccc1 (stereo not given)
92 to 93 °C

Read off the recorded melting point for CC1CCCN1CCN1CCN(CCCN2CCCCC2)C1=C(C#N)C#N (stereo not given)
84 to 86 °C

Determine from records and report melting point for `COc1ccc(CN(C)CCc2ccc(NC(=O)c3cccc4c(=O)c5cc(F)ccc5sc34)cc2)cc1OC`
205 °C

Consider the compound `COc1cccc(C(=O)Nc2ccc3ccc(Cl)nc3n2)c1` . State its measured melting point.
178 °C

State its melting point: `CS(=O)(=O)c1ccc(-c2cnn(CC(F)(F)F)c(=O)c2N2CCCCC2)cc1`
160 to 161 °C

---

Measured melting point by item

In [3]: df
Out[3]:
                                molecule  reported_metric     meas_value
0  CC(=O)NCc1ccc(CN2CCN(c3ccncc3)CC2)cc1    melting point  164 to 166 °C

Here is another molecule to look at.
Give the reported value of melting point for this record: `CC(C)(OCCN1C(=O)c2ccccc2C1=O)OCCN1C(=O)c2ccccc2C1=O`
139 to 141 °C

---

Parameter melting point: see the listing below.

Example compounds with recorded melting point:
                                   compound  reported_metric     meas_value
0            Brc1ccccc1Sc1nc2ccccc2n2cncc12    melting point  191 to 192 °C
1  CC(C)C1Cc2cc(OCC(=O)O)cc(Cl)c2C1=O (stereo unspecified)    melting point  126 to 128 °C
2              CCN1CNS(=O)(=O)c2cc(Br)ccc21    melting point  122 to 124 °C
3                  N#CCCC(C#N)(CCC#N)C(N)=O    melting point  118 to 120 °C
4                    Ic1cccc(C=Cc2ccccc2)c1    melting point          96 °C
5  NCCC1(O)CCc2ccccc2C12CCCC2 (stereo unspecified)    melting point  107 to 109 °C

Given `COc1ncc(F)c2nc(S(=O)(=O)Nc3c(F)cc(Cl)cc3F)nn12` , respond with its melting point.
203 to 204 °C

Output measured melting point for this item: COc1ccc(C(=O)C(CC(=O)N[C@@H](Cc2ccccc2)C(=O)O)SC(C)=O)cc1F (stereo partly specified)
140 to 146 °C

Give melting point for CCC(C(=O)c1ccc(Cl)cc1)n1ncn(-c2ccc(N3CCN(c4ccc(OC)cc4)CC3)nc2)c1=O (stereo unspecified)
142 °C

Tell me melting point reported for `COc1cc(OC)cc(-c2nsnc(Cl)c2=O)c1`
121 to 124 °C

// Input: `COC(=O)CCCc1cc2cc(Cl)ccc2n1S(=O)(=O)c1ccc(OC)cc1` . Output its melting point only.
97 to 98 °C

---

Entries and their melting point values follow.

               molecule   meas_value
0  COc1ccc(C(=O)C#N)cc1  51 to 53 °C

Specify melting point for `COc1cc(Cl)cc(OC(=O)c2cc3cc(CCl)ccc3oc2=O)c1` and stop.
184 to 185 °C

Determine its reported melting point: `CCCCCCCCCCOc1ccc([N+](=O)[O-])cc1OCCCCCCCCCC`
60 to 61 °C

Could you please provide reported melting point for `COc1ccc(CNc2nc(SC)ncc2C(=O)c2cccnc2)cc1Cl` ? Thanks!
141 to 142 °C

---

reported_metric: melting point

Reference set, count: 5
>>> print(df.to_string())
                                   molecule  reported_metric     meas_value
0  Cc1c(C(=O)c2ccccc2F)n(N2C(=O)c3ccccc3C2=O)c2ccccc12    melting point  197 to 199 °C
1   NC1(C(F)F)CCCNC1=O (stereo unspecified)    melting point         149 °C
2  C=CCN(CC=C)Cc1nc(-c2ncn3c2CN(C)C(=O)c2c(Cl)cccc2-3)no1    melting point  126 to 130 °C
3         CN(C)c1ccnc(CSc2c[nH]c3ccccc23)c1    melting point  189 to 191 °C
4           CCn1ccc(=O)c2cnc(-c3ccncc3)nc21    melting point  200 to 202 °C

Read the next record carefully.
# return recorded melting point for entry `O=C(Nc1cccc(Cl)c1C(=O)O)c1ccc(F)cc1`
228 to 233 °C
